The origin of these recorded values is paper PMC5540273.

# Tested on: CLK3
# test.parameters: concentration: 1 μM, replicates: in singlicate; n = 1;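 further: KINOMEscan kinase panel screen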
property.measured: %Inh (%)
Could you give me the number in %? Just the number is fine.

Identify the measured %Inh of N#CC1(c2cccc(C(=O)Nc3cccc(Oc4ccc5nc(NC(=O)C6CC6)sc5n4)c3)c2)CC1 for CLK3. 0

----------
# Test system: SIK2
# test.parameters: concentration: 1 μM, replicates: in singlicate; n = 1
Label class 1 when %Inh is at or above 2%; anything below gets class 0.

molecule.smiles: COc1ccc(NC(=O)c2ccoc2)cc1-c1ccc(C(=O)NCC2CC2)cc1
class.assignment: class 0

molecule.smiles: CN(c1ccc(F)c(NC(=O)c2cccc(OC(C)(C)C#N)c2Cl)c1)c1ccc2nc(NC(=O)C3CC3)sc2n1
class.assignment: class 1

molecule.smiles: CN(c1ccc(NC(=O)Nc2cccc(Cl)c2)cc1)c1ccnc(N)n1.Cl
class.assignment: class 0

molecule.smiles: O=C(Nc1n[nH]c2nc(-c3ccccc3O)ccc12)C1CC1
class.assignment: class 1

molecule.smiles: CC(C)c1nc(-c2cccc(NS(=O)(=O)c3c(F)cccc3F)c2)c(-c2ccnc(Nc3ccc(N4CCOCC4)nc3)n2)s1.Cl
class.assignment: class 1

molecule.smiles: Cc1ccccc1CC(=O)N1CCc2cc(-c3cn(C)c4ncnc(N)c34)ccc21
class.assignment: class 0

Kindly review the next compound as well.
Determine whether this compound has %Inh no lower than 2%: Cc1ccc(NC(=O)c2ccc(Cl)c(Cl)c2)cc1-c1ccc(C(=O)Nc2ccncc2)cc1 class 1

----------
Recorded %Inh, one value per entry.
# Test system: IRAK4
# test.parameters: concentration: 1 μM, replicates: in singlicate; n = 1
Give just the number in %; leave the unit off.

Here is how some molecules turned out for %Inh.
molecule: Cn1cc(-c2cnc(N)c3c(-c4ccc5c(c4)CCN5C(=O)Cc4ccccc4)csc23)cn1
property.measured: %Inh
units.of.measure: %
measured.value: 0

molecule: CS(=O)(=O)c1cccc(CNc2nc(Nc3ccc4c(c3)CCC(=O)N4)ncc2C(F)(F)F)c1
property.measured: %Inh
units.of.measure: %
measured.value: 0

molecule: Fc1cc(Cl)ccc1Nc1ccnc2cc(-c3ccc(CN4CCSCC4)o3)ccc12
property.measured: %Inh
units.of.measure: %
measured.value: 0

molecule: N#Cc1cnc2cc(-c3cnc(CNCCN4CCOCC4)s3)ccc2c1Nc1ccc(Oc2ccccc2)cc1
property.measured: %Inh
units.of.measure: %
measured.value: 37

molecule: COc1ccc(C)c(Nc2ccnc(Nc3ccc(-c4cnc[nH]4)cc3)n2)c1.Cl
property.measured: %Inh
units.of.measure: %
measured.value: 0

Item: Cl.Cl.NC(CNC(=O)c1cc(Br)c(-c2ccnc3[nH]ccc23)s1)c1ccccc1 (centres unmarked) Test system: IRAK4 Read-out: %Inh Value: ? 11

Find %Inh (IRAK4) for the entry COc1cc(Nc2nccc(N3CCC(NS(=O)(=O)c4ccc(NC(C)=O)cc4)CC3)n2)cc(OC)c1OC 44

What is its %Inh for IRAK4? Entry: Cc1ccc(NC(=O)c2ccnc(N3CCCCC3)c2)cc1-c1ccc(C(=O)NCC2CC2)cc1 0

----------
# Tested on: ITK
# test.parameters: concentration: 1 μM, replicates: in singlicate; n = 1
Response field label takes yes (1) when %Inh is strictly below 8% and no (0) in all other cases.

See these solved cases before continuing.
molecule: Cc1ccc(O)cc1Nc1ccnc2ccc(C(C)(C)C)cc12 [GW856805]
class.assignment: yes (1)

molecule: Cc1ccc(NC(=O)c2cccc(N3CCCCC3)c2)cc1-c1ccc(C(=O)NCC2CC2)cc1 [GSK1917008]
class.assignment: no (0)

molecule: CN(C)c1ncnc2nc[nH]c12 [SKF-31736]
class.assignment: yes (1)

Hello, is %Inh of the following molecule strictly smaller than 8%? COC(=O)Nc1nc2ccc(Oc3ccc(CC(=O)Nc4cc(C(F)(F)F)ccc4F)cc3)cc2[nH]1 [GW680903] no (0)

Does the reported %Inh of O=C(O)C(F)(F)F.O=c1[nH]ccc2nc(N[C@@H]3CCNC3)nc(Nc3ccc4c(c3)S(=O)(=O)CC4)c12 [GSK2181306] stay below 8%? no (0)

Hello, is %Inh of the following molecule strictly smaller than 8%? Nc1cccc(-c2ccc3c(N)n[nH]c3c2)c1 [GSK2193613] no (0)

Quick check: %Inh of Cn1cc(-c2ccc3c(c2)CCN3C(=O)Cc2cc(F)cc(F)c2F)c2c(N)ncnc21 [GSK2634140] under 8%? no (0)

Strictly below 8%: is that where %Inh of CN1CCN(Cc2ccc(NC(=O)Nc3ccc(N(C)c4ccnc(Nc5ccc(CS(C)(=O)=O)cc5)n4)cc3)cc2)CC1.Cl [GW827654] sits? no (0)

Given Nc1ncc(-c2cn[nH]c2)c2scc(-c3ccc4c(c3)CCN4C(=O)Cc3ccccc3)c12 [GSK2593067] , is recorded %Inh strictly lower than 8%? no (0)

Check if %Inh falls below 8% for CCOc1nccc(-c2c(-c3ccc(F)cc3)ncn2C2CCNCC2)n1 [SB-249175] . yes (1)

Determine whether this molecule shows %Inh lower than 8% (ties excluded): CN(c1ccc(NC(=O)Nc2cccc(Cl)c2)cc1)c1ccnc(N)n1.Cl [GW830707] yes (1)

Item N#Cc1cnc2cc(-c3cnc(CNCCN4CCOCC4)s3)ccc2c1Nc1ccc(Oc2ccccc2)cc1 [GW664114] : %Inh beneath 8%, strictly? no (0)

Does Cc1ccc(Nc2ccnc(Nc3ccc(C)c(F)c3)n2)cc1O.Cl [GW582868] have %Inh strictly under 8%? no (0)

Dear reviewer, please state whether CC(C)(C)c1ccc(C(=O)Nc2cn3cc(-n4ccnc4)ccc3n2)cc1 has %Inh strictly beneath 8%. no (0)

Could you please tell me whether %Inh recorded for COc1cc(Nc2nccc(N3CCC(NC(=O)Nc4ccc5c(c4)OCO5)C3)n2)cc(OC)c1OC (stereo not drawn) [GSK1379766] is less than 8%? no (0)

Is %Inh of CN(C)CCOc1ccc(-c2cc(-c3ccc(Cl)c(O)c3)c(-c3ccncc3)[nH]2)cc1.Cl.Cl [SB-684387] strictly below 8%? yes (1)

----------
# Test system: EPHB1
# test.parameters: concentration: 1 μM, replicates: in singlicate; n = 1
1 if %Inh is below 20%. -1 if not; exact matches included in -1.

These solved cases illustrate the format of a correct answer.
molecule: CS(=O)(=O)c1cccc(CNc2nc(Nc3ccc4c(c3)CCC(=O)N4)ncc2C(F)(F)F)c1
class.assignment: 1
--
molecule: CCn1c(-c2nonc2N)nc2c(-c3ccccc3)ncc(OCCCN)c21.O=C(O)C(F)(F)F.O=C(O)C(F)(F)F [GSK260205]
class.assignment: 1
--
molecule: Cc1ccc(C)c(NC(=O)Nc2ccc(C)c(-c3ccc(C(=O)Nc4ccncc4)cc3)c2)c1 [GSK1398473]
class.assignment: -1
--
molecule: O=C(Nc1n[nH]c2nc(-c3ccccc3)ccc12)C1CC1 [SB-708999]
class.assignment: 1
--
molecule: Cc1ccc(NC(=O)c2cccc(N3CCCCC3)c2)cc1-c1ccc(C(=O)NCC2CC2)cc1 [GSK1917008]
class.assignment: -1

Find out if reported %Inh for COc1ccc(C2=C(Nc3cccc(O)c3)C(=O)NC2=O)cc1 [SB-390766] is less than 20% 1

Hi there! Is %Inh for CC(C)c1nc(-c2ccc(F)c(NS(=O)(=O)c3c(F)cccc3F)c2)c(-c2ccnc(Nc3ccc(N4CCOCC4)nc3)n2)s1 [GSK1804250] below 20%, do you know? -1

Take the molecule c1ccc(Oc2ccc(Nc3ccnc4cc(-c5ccc(CN6CCCCC6)o5)ccc34)cc2)nc1 [GW567143] and say whether its %Inh is less than 20%. 1

----------
# Test system: RPS6KA4(Kin.Dom.1-N-terminal)
# test.parameters: concentration: 1 μM, replicates: in singlicate; n = 1
Rule: %Inh of 10% or more gives 1 (yes); anything lower gives 0 (no).

// below: answered compounds
compound: CN(C)CCOc1ccc(-c2cc(-c3ccc(Cl)c(O)c3)c(-c3ccncc3)[nH]2)cc1.Cl.Cl
class.assignment: 0 (no)
--
compound: Cl.O=C(Nc1ccc(Oc2ccc3[nH]c(NC(=O)c4ccco4)nc3c2)cc1)Nc1cc(C(F)(F)F)ccc1F
class.assignment: 1 (yes)
--
compound: CN(C)c1ncnc2nc[nH]c12
class.assignment: 0 (no)
--
compound: Cl.Cl.NC(CNC(=O)c1cc(Br)c(-c2ccnc3[nH]ccc23)s1)c1ccccc1 (stereo not shown)
class.assignment: 1 (yes)
--
compound: Fc1cc(Cl)ccc1Nc1ccnc2cc(-c3ccc(CN4CCOCC4)o3)ccc12
class.assignment: 1 (yes)
--
compound: CN(c1ccc(NC(=O)Nc2cccc(Cl)c2)cc1)c1ccnc(N)n1.Cl
class.assignment: 1 (yes)
--
compound: CNc1nccc(-c2ccc3c(N)n[nH]c3c2)n1
class.assignment: 0 (no)
--
compound: CC(C)c1nc(-c2cccc(NS(=O)(=O)c3c(F)cccc3F)c2)c(-c2ccnc(Nc3ccc(N4CCOCC4)nc3)n2)s1.Cl
class.assignment: 0 (no)
--
compound: CN(C)CCNS(=O)(=O)c1ccc(-c2ccnc3[nH]ccc23)cc1
class.assignment: 1 (yes)
--
compound: COc1cccc(-c2nc(-c3ccccc3)[nH]c2-c2ccncc2)c1
class.assignment: 0 (no)

API: above_or_equal(metric=%Inh, cutoff=10%) for item CC(C)c1nc(-c2ccc(F)c(NS(=O)(=O)c3c(F)cccc3F)c2)c(-c2ccnc(Nc3ccc(N4CCOCC4)nc3)n2)s1 0 (no)

# bool: %Inh of Cl.N#CCc1ccc(Nc2nccc(Nc3ccc(Oc4ccccc4)cc3)n2)cc1 >= 10% 0 (no)

Hello, I need to know if COc1cccc(NC(=O)NCCNc2ccnc(Nc3ccc(F)cc3)n2)c1 has measured %Inh not below 10%. Thanks! 0 (no)

Could you please find out whether CCn1cnc2c(NCc3ccccc3)ncnc21 has %Inh that meets 10% or exceeds it? 1 (yes)

Entry Cc1ccccc1CC(=O)N1CCc2cc(-c3cn(C)c4ncnc(N)c34)ccc21 : is its %Inh no less than 10%? 1 (yes)

Can Cl.Cl.NCC(NC(=O)c1cc(-c2cccnc2)c(-c2ccnc3[nH]ccc23)s1)c1ccccc1 (stereo not shown) be said to have %Inh at or above 10%? 1 (yes)

Exam item: decide whether the reported %Inh for CN(c1ccc2c(c1)nc(NCc1ccccc1)n2C)c1ccnc(Nc2ccc(CS(C)(=O)=O)cc2)n1.Cl is at least 10%. 0 (no)

Does the compound Nc1ncnc2scc(-c3ccc(NC(=O)Cc4cc(F)ccc4F)cc3)c12.O=C(O)C(F)(F)F have recorded %Inh that is 10% or more? 1 (yes)

Kindly determine if %Inh recorded for COc1cc(Nc2nccc(N3CCC(NC(=O)Nc4ccc5c(c4)OCO5)C3)n2)cc(OC)c1OC (stereo not shown) is above or exactly 10%. 0 (no)

# check: %Inh of N#Cc1cnc2cc(-c3cnc(CNCCN4CCOCC4)s3)ccc2c1Nc1ccc(Oc2ccccc2)cc1 is greater than or equal to 10% 1 (yes)

Does the compound O=C(O)C(F)(F)F.O=c1[nH]ccc2nc(N[C@@H]3CCNC3)nc(Nc3ccc4c(c3)S(=O)(=O)CC4)c12 have recorded %Inh that is 10% or more? 1 (yes)
